applied conditions: in n-butanol, 293.15 K

- compound: "O=C1C(CCS(=O)c2ccccc2)C(=O)N(c2ccccc2)N1c1ccccc1 (stereo unspecified)"
  solubility (mole fraction): 0.00314

----------
applied conditions: in sec-butanol, 308.15 K

- compound: "O=C1C(CCS(=O)c2ccccc2)C(=O)N(c2ccccc2)N1c1ccccc1 (stereo unspecified)"
  solubility (mole fraction): 0.00655

----------
applied conditions: in ethanol, 313.15 K

- compound: "O=C1C(CCS(=O)c2ccccc2)C(=O)N(c2ccccc2)N1c1ccccc1 (stereo unspecified)"
  solubility (mole fraction): 0.00719

----------
applied conditions: in water, 323.15 K
metric name: solubility (mole fraction)

- compound: "O=C1C(CCS(=O)c2ccccc2)C(=O)N(c2ccccc2)N1c1ccccc1 (stereo unspecified)"
  result: 0.000777

----------
applied conditions: in methanol, 313.15 K
metric name: solubility (mole fraction)

- compound: "O=C1C(CCS(=O)c2ccccc2)C(=O)N(c2ccccc2)N1c1ccccc1 (stereo unspecified)"
  result: 0.0114

----------
applied conditions: in methyl acetate, 288.15 K

- compound: "O=C1C(CCS(=O)c2ccccc2)C(=O)N(c2ccccc2)N1c1ccccc1 (stereo unspecified)"
  solubility (mole fraction): 0.0109

----------
applied conditions: in sec-butanol, 323.15 K

- molecule: "O=C1C(CCS(=O)c2ccccc2)C(=O)N(c2ccccc2)N1c1ccccc1 (stereo unspecified)"
  solubility (mole fraction): 0.0156

----------
applied conditions: in isopropanol, 303.15 K
metric name: solubility (mole fraction)

- compound: "O=C1C(CCS(=O)c2ccccc2)C(=O)N(c2ccccc2)N1c1ccccc1 (stereo unspecified)"
  result: 0.00302

----------
applied conditions: in methanol, 293.15 K

- compound: "O=C1C(CCS(=O)c2ccccc2)C(=O)N(c2ccccc2)N1c1ccccc1 (stereo unspecified)"
  solubility (mole fraction): 0.00401

----------
applied conditions: in methanol, 298.15 K
metric name: solubility (mole fraction)

- compound: "O=C1C(CCS(=O)c2ccccc2)C(=O)N(c2ccccc2)N1c1ccccc1 (stereo unspecified)"
  result: 0.00508

----------
applied conditions: in methyl acetate, 303.15 K

- compound: "O=C1C(CCS(=O)c2ccccc2)C(=O)N(c2ccccc2)N1c1ccccc1 (stereo unspecified)"
  solubility (mole fraction): 0.0195

----------
applied conditions: in water, 298.15 K

- compound: "O=C1C(CCS(=O)c2ccccc2)C(=O)N(c2ccccc2)N1c1ccccc1 (stereo unspecified)"
  solubility (mole fraction): 0.000176

----------
applied conditions: in acetonitrile, 283.15 K
metric name: solubility (mole fraction)

- molecule: "O=C1C(CCS(=O)c2ccccc2)C(=O)N(c2ccccc2)N1c1ccccc1 (stereo unspecified)"
  metric name: "solubility (mole fraction)"
  result: 0.0131

----------
applied conditions: in acetone, 298.15 K
metric name: solubility (mole fraction)

- molecule: "O=C1C(CCS(=O)c2ccccc2)C(=O)N(c2ccccc2)N1c1ccccc1 (stereo unspecified)"
  result: 0.0244
